Test system: MCF7 breast
assayComment: NCI tumour cell line growth inhibition, 48 h
readoutKind: TGI

| molecule | TGI |
| --- | --- |
| Cc1nc2ccccc2n1Cc1nnc2n1N=C(c1ccccc1)CS2 | > 100 µM |
| Cc1ccc(S(=O)(=O)N2CCCSCCN(S(=O)(=O)c3ccc(C)cc3)CCCSCC2)cc1 | > 100 µM |
| C[C@]12CCc3sc(-c4cccc(F)c4)nc3C1=CC[C@@H]1[C@@H]2CC[C@]2(C)C(=O)CC[C@@H]12 | 4.26 µM |

Quick one: TGI of N#CCCN(CCC#N)c1ccc(C(N=Nc2ccc(Cl)cc2)=Nc2ccc(Cl)cc2)cc1 ?
24.7 µM

Quick one: TGI of O=C(Nc1cccc(-n2cc(-c3ccncc3)c(-c3ccc(O)c(Cl)c3)n2)c1)c1ccc(Cl)c(Cl)c1 ?
> 100 µM
